test.name: Terminal plasma and brain concentrations in AC-MES studies (UHPLC-MS/MS)
Assay type: in vivo, mouse
condition: male, CF-1, mouse, in vivo, po, 3 mg/kg, Study 2C, Compound A 3 mg/kg PO, 0.5 h, alone; read-out: Mean Brain
measured.quantity: concentration at 0.5 h (nM)

• Cc1cc(N2CCc3cc(F)ccc3C2)cc(C)c1NC(=O)CC(C)(C)C = 510

----------
test.name: Terminal plasma and brain concentrations in AC-MES studies (UHPLC-MS/MS)
Assay type: in vivo, mouse
condition: CF-1, mouse, in vivo, 8 mg/kg, Study 2A, Lacosamide 8 mg/kg PO, 2 h; read-out: Mean Brain
Description: Sample Collection and Preparation: Mice were anesthetized by isoflurane inhalation (according to SOP TECH-018) until they reached a surgical plane of anesthesia. […] Plasma Samples: Extraction of plasma samples was carried out by protein precipitation using acetonitrile. […] The samples were analyzed by ultra-high performance liquid chromatography electrospray ionization tandem mass spectrometry (UHPLC-ESI-MS/MS) as described in the bioanalysis procedure below. […]
measured.quantity: concentration at 2 h (µM)

- COC[C@@H](NC(C)=O)C(=O)NCc1ccccc1 [Lacosamide, reference compound]: 6.27
